Overview of recorded apparent KD of MS2 coat protein for various sequences
Test system: MS2 coat protein
experiment: apparent KD of MS2 coat protein; designed switch direction (-1 OFF switch, 1 ON switch): 1; higher = weaker reporter binding
recordedConditions: input ligand: none
measurementName: apparent KD of MS2 coat protein (nM)

- entrySequence: "ACAUGAGAGAUAGGAUAUCGUGUACCUACAUGUGACAUGAGGAUCACCCAUGUGGUAAGUAUGAGCGAGAAGGAUCAGAUAUGU [Equivalence 50 - Jieux - Same State NG 2] (Eterna round: R96, puzzle: Same State NG 2)"
  assayedSystem: "MS2 coat protein"
  val: 78.4
- entrySequence: "AACAGUCGGCGAGGAUAUGGACGUACAGGUUUGCCUGUGCGGCUCACAUGAGGAUCACCCAUGUUCUAGAAGGCGCCACUGAGA [Lausrein] (Eterna round: R96, puzzle: Same State NG 2)"
  assayedSystem: "MS2 coat protein"
  val: 81.2

----------
Tested on: MS2 coat protein
experiment: apparent KD of MS2 coat protein, switch ON state; designed switch direction (-1 OFF switch, 1 ON switch): -1; higher = weaker reporter binding
recordedConditions: FMN input: 0 or 200 uM; Eterna round: R93 (includes R88 designs)
measurementName: apparent KD of MS2 coat protein (nM)

- entrySequence: "AAAAAACAUGAGGAUCACCCAUGUGAGGAUAUCGAAAAGUCAAAGAAAAAGACGAAAACGAGAAGGCGCAAAAA [Inspired by Nando]"
  assayedSystem: "MS2 coat protein"
  unitOfMeasure: "nM"
  val: 23.7
- entrySequence: "AGGGAGUAAGGAUAUGAGAAAGAAAAAGAAGGAAAAAAAGAUCAGAAGGUACAUGAGGAUCACCCAUGUAAAAA [milkweed 9]"
  assayedSystem: "MS2 coat protein"
  unitOfMeasure: "nM"
  val: 35.6
- entrySequence: "AAGAAACAUGAGGAUCACCCAUGUCAGGAUAUCCAAGAAAGAAAGAAAGAAAGAAGAAGGAGAAGGGACAAAGG [Lucius Antonius Pedo]"
  assayedSystem: "MS2 coat protein"
  unitOfMeasure: "nM"
  val: 64.8
- entrySequence: "GCGCACUAAGGAUAUACAUGAGGAUCACCCAUGUGGGUUUUGAAACAGAUUAAAUAGUGUAGAAGGUAGAAAAC [Lees]"
  assayedSystem: "MS2 coat protein"
  unitOfMeasure: "nM"
  val: 91.9
- entrySequence: "CUCAUGUGAGGAUAUCAGUAGUAAAAAAAUAAAAUUACUACUGAGAAGGCACAUGAGGAUCACCCAUGUGAAAA [EX4 339: Super Stable 39]"
  assayedSystem: "MS2 coat protein"
  unitOfMeasure: "nM"
  val: 27.4
- entrySequence: "AGUGAGUCAGGAUAUUCGUGAAGAAUAAAAGAAAUAACAACGAAGAAGGGACAUGAGGAUCACCCAUGUACACA [May 57]"
  assayedSystem: "MS2 coat protein"
  unitOfMeasure: "nM"
  val: 33.6
- entrySequence: "AACAAGUCAGGAUAUGUUAAAGGUUACGAAAGGGAUAAAGGGCAGAAGGGACAUGAGGAUCACCCAUGUAAUAA [And All that Jazx]"
  assayedSystem: "MS2 coat protein"
  unitOfMeasure: "nM"
  val: 48

----------
Test system: MS2 coat protein
experiment: apparent KD of MS2 coat protein; designed switch direction (-1 OFF switch, 1 ON switch): 1; higher = weaker reporter binding
recordedConditions: Eterna round: R95; input ligand: none
measurementName: apparent KD of MS2 coat protein (nM)

- entrySequence: "AGCUAUCGCGUACGAUAGCUGAAGCAUGUACAUGAGGAUCACCCAUGUCAUGUGCAGGCUUUUUGCUCGUCUUAUUG [JL-shm-2.30 JL mod] (puzzle: Sensor for hsa-mir-208a)"
  measurementName: "apparent KD of MS2 coat protein"
  unitOfMeasure: "nM"
  val: 75.1
- entrySequence: "CGAUGAUACUCAGGAAGGAGAGUAGAGGAACAUGAGGAUCACCCAUGUAUGAGCUUUUUGCUCGUCAUGAACAGGAG [JR_SHM208a_Sub009] (puzzle: Sensor for hsa-mir-208a)"
  measurementName: "apparent KD of MS2 coat protein"
  unitOfMeasure: "nM"
  val: 111
- entrySequence: "CUCAAAACAAGUUGCAGUGUUCGUCUUUAACAUGAGGAUCACCCAUGUAAUAACCCGGUGGAAGCGCUCGGGCCACC [Gereerle] (puzzle: Sensor for hsa-mir-208a)"
  measurementName: "apparent KD of MS2 coat protein"
  unitOfMeasure: "nM"
  val: 26.1
- entrySequence: "UAGUACAAGCUUUUUGCUUGUCUUAUUUAACAUGAGGAUCACCCAUGUAAGUUGAAAGUUAGAGAGUGGAGGUUGAA [JR_SHM208A_Sub050] (puzzle: Sensor for hsa-mir-208a)"
  measurementName: "apparent KD of MS2 coat protein"
  unitOfMeasure: "nM"
  val: 18.8
- entrySequence: "GGGAGACAUGAGGAUCACCCAUGUGGGAGGGAACGAGGAUAUGUAAGGAGAGAGAAUAGAACAGAAGGCGUAGGUG [JR_SS1_Sub022] (puzzle: Same State 1)"
  measurementName: "apparent KD of MS2 coat protein"
  unitOfMeasure: "nM"
  val: 61.9
- entrySequence: "GGAGCCGGCACUGAGGAUAUUCAUAUUAAAACAUGAGGAUCACCCAUGUAGGCCAGAAGGCCUUGGGAGAAGGCGGAUCGGCUCG [Xeonanis - 14] (puzzle: Same State 2)"
  measurementName: "apparent KD of MS2 coat protein"
  unitOfMeasure: "nM"
  val: 1070
- entrySequence: "GGUCCCUACGCACAGGAUAUUCUUUUGGCAACAUGAGGAUCACCCAUGUGUGCCGAUCAUGGUUAGAAGAAGGGUGGUAAGGACG [Qucesosobe] (puzzle: Same State 2)"
  measurementName: "apparent KD of MS2 coat protein"
  unitOfMeasure: "nM"
  val: 12.2
- entrySequence: "AAUAGUUGCGGGCAGGAUAUGUAUUAAAAUACAUGAGGAUCACCCAUGUGCGGGUAUAACACCCGACAGAAGGGCCAAUCGCGAC [Mat - Same State 2 - Mod of UCT - D94] (puzzle: Same State 2)"
  measurementName: "apparent KD of MS2 coat protein"
  unitOfMeasure: "nM"
  val: 233
- entrySequence: "GGAUCCGGCACUGAGGAUAUUCAUAUUUAAACAUGAGGAUCACCCAUGUAGGCCAGAAGGCCUUGGGAGAAGGCAGGUCGGCUCG [salish99_ss2_r3_082] (puzzle: Same State 2)"
  measurementName: "apparent KD of MS2 coat protein"
  unitOfMeasure: "nM"
  val: 484
- entrySequence: "UGUUAACAUGAGGAUCACCCAUGUCAAAAGAAUCGAGGAUAUGGUAAGUAAUAAGAGAAUCUAGAAGGCGAAGUUG [Altered State 1-24 - Jieux - Same State 1] (puzzle: Same State 1)"
  measurementName: "apparent KD of MS2 coat protein"
  unitOfMeasure: "nM"
  val: 60.9
- entrySequence: "AGCAAUCUAUCUCAGGAUAUCAUGUCAAAGACAUGAGGAUCACCCAUGUACCAGGAAACUGGUUAUGAGAAGGGAGAUAGAUUGA [Mat - Same State 2 - Mod - D29] (puzzle: Same State 2)"
  measurementName: "apparent KD of MS2 coat protein"
  unitOfMeasure: "nM"
  val: 177
- entrySequence: "ACCCGAAGUAUAUGGGAACAAGCUUUUUAACAUGAGGAUCACCCAUGUACUCGUCUUAUAAGCAGUCGAAAGACUGC [Sensor 100 - 5] (puzzle: Sensor for hsa-mir-208a)"
  measurementName: "apparent KD of MS2 coat protein"
  unitOfMeasure: "nM"
  val: 44.5
- entrySequence: "CAUAAUAAAACGGAGGAUAUGCUACCCUUCACAUGAGGAUCACCCAUGUUACCCUCUUAUUUUCAGUAGAAGGCCGAUACAUAAC [Delilah] (puzzle: Same State 2)"
  measurementName: "apparent KD of MS2 coat protein"
  unitOfMeasure: "nM"
  val: 38.9
- entrySequence: "AGUCUACGGAAACGUAGACAGUGGAGCGUACAUGAGGAUCACCCAUGUCAUGUGAGAGCUACUUGUUCGUCUUGAGC [SENSOR #5] (puzzle: Sensor for hsa-mir-208a)"
  measurementName: "apparent KD of MS2 coat protein"
  unitOfMeasure: "nM"
  val: 26.8
- entrySequence: "GAGGGAUGAGCGUAGGAUAUAGGAGAAGUGACAUGAGGAUCACCCAUGUGGUAUGAGGGAUGAUUCUAGAAGGACGCGGUAGAAG [JR_SS2_Sub063] (puzzle: Same State 2)"
  measurementName: "apparent KD of MS2 coat protein"
  unitOfMeasure: "nM"
  val: 373
- entrySequence: "AUAAGUUUGAUGCUCGUCCCUCCGUACAGACAUGAGGAUCACCCAUGUAGUCGGGAAGUAGCCCGGCCAGUAUGGCC [Biraza] (puzzle: Sensor for hsa-mir-208a)"
  measurementName: "apparent KD of MS2 coat protein"
  unitOfMeasure: "nM"
  val: 15
- entrySequence: "GGGCCAGCUUGUGCUGGGCCUUCGCAUGCACAUGAGGAUCACCCAUGUCGUGUACAUGCUUUUUGCUCGUCUUUAAA [Photon Torp-11] (puzzle: Sensor for hsa-mir-208a)"
  measurementName: "apparent KD of MS2 coat protein"
  unitOfMeasure: "nM"
  val: 40.8
- entrySequence: "GGAGCCGGCACUGAGGAUAUUCAUAAUAAAACAUGAGGAUCACCCAUGUAGGCCAGAAGGCCUUGGGAGAAGGCAGGUCGGCUCG [Mat - Same State 2 - Mod of UCT - D65] (puzzle: Same State 2)"
  measurementName: "apparent KD of MS2 coat protein"
  unitOfMeasure: "nM"
  val: 185
- entrySequence: "GGUCCGGCCUGAGCUGGACCGAAGCAUGUACAUGAGGAUCACCCAUGUUCAUGUGCAGGCUUUUUGCUCGUCUUGUG [JL-shm-2.05 JL mod] (puzzle: Sensor for hsa-mir-208a)"
  measurementName: "apparent KD of MS2 coat protein"
  unitOfMeasure: "nM"
  val: 106
- entrySequence: "AACAAUCUAUCUGAGGAUAUCAUGAAAAAAACAUGAGGAUCACCCAUGUGCAGGAAAACUGCAUAUGAGAAGGCAGAUAGAUUGG [salish99_SS2_r3_003] (puzzle: Same State 2)"
  measurementName: "apparent KD of MS2 coat protein"
  unitOfMeasure: "nM"
  val: 814
